protocolDescription: Acute oral toxicity in rat
conditionDetails: in vivo, per os
# LD50 values compiled below
Express it in mg/kg; write the number only.

[ask] Find the recorded LD50 belonging to CCCSP(=O)(OCC)Oc1ccc(Br)cc1Br (stereo not drawn) [III] and report it.
[reply] 300

---
[ask] Find the recorded LD50 belonging to CCCSP(=O)(OCC)Oc1ccc(Cl)cc1Cl (stereo not drawn) [II] and report it.
[reply] 400

meta.source: patent US3992533A
